tested on: HepG2; assay: GSK_TCMDC: Percent inhibition of human HepG2 cell line. Test compounds present at 10uM.; assay type: functional
Inhibition of 20% or higher: label 1. Under 20%: label 0.

| compound | label |
| --- | --- |
| COC(=O)c1ccc2nc(-c3ccc(C(=O)NC4CCN(Cc5ccccc5)CC4)s3)[nH]c2c1 | label 0 |
| COCc1cccc(-c2cc(-c3ccc(S(C)(=O)=O)cc3)cnc2N)c1 | label 0 |
| CC(C)c1ccc(NC(=O)Nc2ccc(Cn3ncc(N4CCCNCC4)c(Cl)c3=O)cc2)cc1.O=C(O)C(F)(F)F | label 0 |
| O=C(N[C@@H](CC1CCCCC1)C(=O)NCc1cccc(C(F)(F)F)c1)c1ccc(O)c(-c2ccc(Cl)c(Cl)c2)c1 | label 0 |
| CC(=O)Oc1ccc(C(=O)Oc2ccccc2C#CC#N)cc1OC(C)=O | label 1 |
| O=C(Nc1ccc(-c2ccc(-c3nc4cc(C(F)(F)F)ccc4[nH]3)s2)cc1)c1ccoc1 | label 0 |
| COc1ccc(CN2CCC(CNCc3cccc(-c4ccccc4)c3)CC2)cc1.O=C(O)C(F)(F)F | label 1 |
| CCCOc1ccc(C(=O)Nc2nonc2-c2ccc(OC)c(OC)c2)cc1 | label 0 |
| CN1CCC(C(=O)N(Cc2ccc(-c3ccc(CNCCc4ccc(S(C)(=O)=O)cc4)cn3)cc2)Cc2ccc3c(c2)OCO3)CC1.O=C(O)C(F)(F)F | label 0 |
| CC(C)=CCN1CCC(C(=O)Nc2ccc(-c3nc4ccccc4[nH]3)cc2)CC1 | label 0 |
| Cl.N#Cc1cccc(/C=C/C(=O)NC2CCC(CCN3CCc4ccc(-c5cnccn5)cc4CC3)CC2)c1 (stereo not drawn) | label 1 |
| CNC(=O)CSc1nnc(-c2ccc(C)cc2)c(-c2ccc(C)cc2)n1 | label 0 |
| Cc1cccc2nc(-c3ccc(-c4ccc(NC(=O)Nc5ccc(F)c(F)c5F)cc4)s3)[nH]c12 | label 1 |
| O=C(NC1CCCCC1)N(Cc1cccc(-c2ccc(CNCCc3ccccc3)cc2)c1)C1CCN(Cc2ccccc2)CC1.O=C(O)C(F)(F)F | label 1 |
| COc1ccc(NC(=O)[C@H](Cc2ccccc2)Nc2cc(C)nc(NCCc3ccc(F)cc3)n2)cc1.O=C(O)C(F)(F)F | label 0 |
| COC(=O)c1cccc(CNCc2cccc(-c3ccc(-c4nc5ccccc5[nH]4)s3)c2)c1.O=C(O)C(F)(F)F | label 0 |
| Cl.O=C(NC1CCN(CC2(c3ccc(Cl)cc3)CCCCC2)CC1)c1cc[nH]n1 | label 0 |
| C[C@H](Cc1ccc(C[C@@H](C)NC[C@H](O)c2cccc(Cl)c2)cc1)NC[C@H](O)COc1ccccc1.Cl | label 1 |

====

tested on: Plasmodium falciparum; assay: GSK_TCMDC: Inhibition of Plasmodium falciparum 3D7 in whole red blood cells, using parasite LDH activity as an index of growth. Test compounds present at 2uM; assay type: functional
observedProperty: Inhibition (%)

| compound | observedProperty | measured |
| --- | --- | --- |
| Cc1cc(N[C@@H](Cc2ccccc2)C(=O)NCc2cccs2)nc(NCCc2ccccn2)n1.O=C(O)C(F)(F)F | Inhibition | 93 |
| O=c1ccc(CNc2nc(NCCc3ccccc3)nc3ccc(Cl)cc23)c[nH]1 | Inhibition | 99 |
| CCN(CCCN1CCCCC1)c1cc(C)nc(Nc2ccc(F)c(C(F)(F)F)c2)n1.O=C(O)C(F)(F)F | Inhibition | 100 |
| Cn1cnc2c(SCc3ccccc3OCc3ccccc3)ncnc21 | Inhibition | 86 |
| O=C(Nc1ccc(-c2cccc(CN3CCC(O)CC3)c2)cc1)c1cccc(Cl)c1.O=C(O)C(F)(F)F | Inhibition | 94 |
| O=C(Nc1cccc(-c2nn3ccccc3c2-c2ccnc(Nc3ccc(-c4cc[nH]n4)cc3)n2)c1)c1c(F)cccc1F | Inhibition | 98 |
| O=C(NCC1CCN(CCN2CCC(c3cn(CCO)c4ccccc34)CC2)CC1)c1ccc(-c2ccc(C(F)(F)F)cc2)cc1 | Inhibition | 100 |
| COc1ccc(-c2ccc(NC(=O)c3ccc(C#N)cc3)cc2)cc1CN1CCC(O)CC1.O=C(O)C(F)(F)F | Inhibition | 94 |
| COc1ccccc1CCNc1nc(C)cc(NCCC(=O)NCCOc2ccccc2)n1.O=C(O)C(F)(F)F | Inhibition | 85 |
| Cc1cc(N/N=C/c2cccc([N+](=O)[O-])c2)c2ccc(F)cc2n1 | Inhibition | 100 |
| Cl.N#Cc1ccc2c(c1)CCN(CCC1CCC(NC(=O)/C=C/c3cccc4cc[nH]c34)CC1)CC2 (centres undefined) | Inhibition | 89 |
| CN(C)c1ccc(Br)c(Br)c1 | Inhibition | 86 |
| CN(C)Cc1ccc2cc(NC(=O)c3ccc(-c4ccc(Cl)cc4)cc3)ccc2c1 | Inhibition | 92 |
| COc1ccc2nccc(N(C)CC3(O)CCN(CCc4ccc5c(c4)NC(=O)CS5)CC3)c2n1.Cl | Inhibition | 91 |
| CCC(N)(C#Cc1ccc(-c2c(C)[nH]c(C)c(Br)c2=O)cc1)CC | Inhibition | 97 |
| Brc1cc(Br)c2c(c1)C(NCCCNC1CCNc3c(Br)cc(Br)cc31)CCN2 (centres undefined) | Inhibition | 98 |
| CN(C)CCOC(=O)C1(O)CCC2CC1C2(C)C.Cl (centres undefined) | Inhibition | 95 |
| O=C1OC2(CN1CC1CCN(Cc3ccc(O)c(Cl)c3)CC1)c1ccccc1-c1ccccc12 | Inhibition | 97 |
| CC(C)C(NC(=O)c1c(F)cccc1F)C(=O)Nc1ccc(Cc2nc3ccccc3s2)cc1 (centres undefined) | Inhibition | 86 |

====

We begin with a simple list: items and their reported Inhibition.
test system: Plasmodium falciparum; test: GSK_TCMDC: Inhibition of Plasmodium falciparum Dd2 in whole red blood cells, using parasite LDH activity as an index of growth. Test compounds present at 2uM; assay type: functional

| molecule | testedSystem | Inhibition |
| --- | --- | --- |
| CN(C)CCC=C1c2ccccc2Sc2c(O)cc(Cl)cc21.O=C(O)/C=C\C(=O)O | Plasmodium falciparum | 80% |
| COc1ccc(NC(=O)NC2CCN(CCCOc3ccnc4cc(Cl)ccc34)C2)cc1OC (configuration not stated) | Plasmodium falciparum | 16% |
| NC(=O)c1cccc(C(=O)Nc2cccc(-c3cccc(-c4nc5ccccc5[nH]4)c3)c2)c1 | Plasmodium falciparum | 78% |
| CCc1c(CCNCCCCCCNCCc2ccc3c(c2C)OCO3)ccc2c1OCO2.Cl | Plasmodium falciparum | 7% |
| COc1cc(-c2nc(-c3ccccc3)c(-c3ccccc3)[nH]2)ccc1OCCN(C)C | Plasmodium falciparum | 100% |
| Cc1cccc2c3c([nH]c12)C1(CCN(Cc2ccccc2)CC1)NC(C(=O)NCc1ccccc1)C3 (configuration not stated) | Plasmodium falciparum | 8% |
| Cc1cccc(CNc2nccc3[nH]c4ccccc4c23)c1.O=C(O)C(F)(F)F | Plasmodium falciparum | 51% |
| O=C(Nc1ccccc1)N(Cc1ccccc1-c1cccc(CNCCc2ccccc2)c1)C1CCN(Cc2ccccc2)CC1.O=C(O)C(F)(F)F | Plasmodium falciparum | 59% |
| CCCCOc1cc2ncc(C(=O)OCC)c(O)c2cc1OCCCC | Plasmodium falciparum | 96% |
| O=C(C1CC1c1ccccc1)N(Cc1ccc(-c2ccc(CNCCc3ccccc3)cc2)cc1)C1CCNCC1.O=C(O)C(F)(F)F (configuration not stated) | Plasmodium falciparum | 39% |
| O=C(CSc1nc2ccccc2c(=O)n1CC1CCCO1)Nc1cc(C(F)(F)F)ccc1Cl (configuration not stated) | Plasmodium falciparum | 95% |
| CCCOc1ccccc1-c1nc2[nH]c3c(c2c(=O)[nH]1)CCN(C)C3 | Plasmodium falciparum | 70% |
| COc1cc(C)nc2ccc(NC(=O)COCC(=O)Nc3ccc4nc(C)cc(OC)c4c3)cc12 | Plasmodium falciparum | 41% |
| N#Cc1cccc(NC(=O)c2ccc(S(=O)(=O)NCC3CCCN3CC3CCCCC3)cc2)c1.O=C(O)C(F)(F)F (configuration not stated) | Plasmodium falciparum | 18% |
| Cc1cc(Nc2cccc(C(F)(F)F)c2)nc(Nc2cccc(C(F)(F)F)c2)n1 | Plasmodium falciparum | 73% |
| COc1cc(F)c2nccc([C@@H](O)CN3CCC(NC(=O)OCc4ccccc4)C(F)C3)c2c1 (some centres not stated) | Plasmodium falciparum | 100% |
| CC1(C)N=C(N)N=C(N)N1OCCCOc1cc(Cl)c(Cl)cc1Cl.Cl | Plasmodium falciparum | 95% |
| CN(C)Cc1c(O)ccc2[nH]c(-c3cccc(F)c3)nc12 | Plasmodium falciparum | 71% |
| O=C(Nc1cccc(-c2nn3ccccc3c2-c2ccnc(Nc3ccc(NCCCN4CCOCC4)c(F)c3)n2)c1)c1c(F)cccc1F | Plasmodium falciparum | 97% |
| CC(C)N1CCN(C(CN2CCN(CCCOc3ccc4nonc4c3)CC2)c2ccc(F)cc2)CC1.Cl (configuration not stated) | Plasmodium falciparum | 40% |
| CN1CCC(C(=O)Nc2cccc(-c3ccc(-c4nc5ccccc5[nH]4)cc3)c2)CC1 | Plasmodium falciparum | 15% |
| CCC[C@@H]([C@@H](CC1CCCCC1)C(=O)N[C@H](C(=O)Nc1nccs1)[C@@H](C)OCc1ccccc1)N(O)C=O | Plasmodium falciparum | 99% |
| CCCn1c(=N)c(C(=O)NCCc2ccccc2)cc2c(=O)n3cccc(C)c3nc21 | Plasmodium falciparum | 64% |
| CCCCCN1CCCC1CNS(=O)(=O)c1cccc(C(=O)Nc2cccc(C(F)(F)F)c2)c1.O=C(O)C(F)(F)F (configuration not stated) | Plasmodium falciparum | 12% |
| COc1ccc(C=Cc2cc(=N)c3ccccc3[nH]2)cc1.I | Plasmodium falciparum | 16% |
| C=C1C(C(=O)OCC)=CN(CC)c2cc(O[C@H]3CCN(C(=O)OC(C)(C)C)C3)ccc21 | Plasmodium falciparum | 75% |
| CC(CN(C)C)C(=O)Nc1cccc(-c2ccc(-c3nc4cc(C(F)(F)F)ccc4[nH]3)cc2)c1 (configuration not stated) | Plasmodium falciparum | 97% |
| O=[N+]([O-])c1ccccc1C=NN=c1c2c([nH]c3ccccc13)CCCC2 | Plasmodium falciparum | 99% |
| COc1ccc(NC(=O)c2ccc3cc4ccccc4cc3c2)cc1N1CCN(C)CC1 | Plasmodium falciparum | 29% |
| Br.N=C(N)Nc1nc(-c2cccc(NC(=O)C(F)(F)F)c2)cs1 | Plasmodium falciparum | 24% |
| COc1cc2c(cc1N1CCN(C)CC1)N(C(=O)Nc1ccc(-c3ccncc3)c(Cl)c1Cl)CC2 | Plasmodium falciparum | 4% |
| CC(=O)Nc1nnc(SCc2c(C)cc(C(C)(C)C)cc2C)s1 | Plasmodium falciparum | 91% |
| Cc1cccc2nc(-c3ccc(-c4cccc(NC(=O)c5cccc(C(N)=O)c5)c4)cc3)[nH]c12 | Plasmodium falciparum | 87% |
| COc1ccc(-c2ccc(NC(=O)c3ccc(Cl)cc3)cc2)cc1CN1CCNCC1.O=C(O)C(F)(F)F | Plasmodium falciparum | 24% |
| Br.CC1(C)NC(N)=NC(=N)N1OCCCOc1ccc([N+](=O)[O-])cc1 | Plasmodium falciparum | 80% |
| FC(F)(F)c1ccc2[nH]c(-c3ccc(-c4cccc(CNCCN5CCNCC5)c4)cc3)nc2c1.O=C(O)C(F)(F)F | Plasmodium falciparum | 2% |
| CN1CCN(CC(=O)Nc2cccc(-c3ccc(-c4nc5cc(F)ccc5[nH]4)cc3)c2)CC1 | Plasmodium falciparum | 98% |
